Item-by-item account of IC50
Assay: Cytotoxicity against human MDA435/LCC6MDR cells after 3 days by MTS assay
Assay type: ADME, cell-based
Details: 72 h
parameter: IC50 (µM)

1. CCN(CC)c1ccc(Cc2c(Cc3ccc(OC)c(OC)c3)nc(N(C(=O)/C=C/c3cc(OC)c(OC)c(OC)c3)C(=O)/C=C/c3cc(OC)c(OC)c(OC)c3)n2C)cc1 ... 9.1
2. CCN(CC)c1ccc(Cc2c(Cc3ccc(OC)c(OC)c3)nc(NC(=O)c3cc(OC)c(OC)c(OC)c3)n2C)cc1 ... 38.3

----------
Tested on: L929
Assay: Cytotoxicity against mouse L929 cells after 3 days by MTS assay
Type: cell-based
Conditions: L929, 72 h
parameter: IC50 (µM)

1. CCN(CC)c1ccc(Cc2c(Cc3ccc(OC)c(OC)c3)nc(NC(=O)c3cc(OC)c(OC)c(OC)c3)n2C)cc1 ... 47.4
2. CCN(CC)c1ccc(Cc2c(Cc3ccc(OC)c(OC)c3)nc(N(C(=O)/C=C/c3cc(OC)c(OC)c(OC)c3)C(=O)/C=C/c3cc(OC)c(OC)c(OC)c3)n2C)cc1 ... 18.2
